# target system: human recombinant LPA1 Lysophospholipid receptor (Homo sapiens, UniProt Q92633)
# Sequence (Q92633 whole entry): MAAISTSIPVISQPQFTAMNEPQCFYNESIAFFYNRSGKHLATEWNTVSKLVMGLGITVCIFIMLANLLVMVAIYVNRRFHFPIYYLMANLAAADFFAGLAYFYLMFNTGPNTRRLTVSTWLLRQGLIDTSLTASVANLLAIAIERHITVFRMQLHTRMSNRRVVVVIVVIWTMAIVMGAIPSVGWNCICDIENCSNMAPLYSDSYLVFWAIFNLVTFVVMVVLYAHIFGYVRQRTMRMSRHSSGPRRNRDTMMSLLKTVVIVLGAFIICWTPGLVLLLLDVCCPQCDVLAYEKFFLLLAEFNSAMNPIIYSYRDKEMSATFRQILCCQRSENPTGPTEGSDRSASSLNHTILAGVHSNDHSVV
# test: Calcium flux assay using FLIPR, LPA1 antagonist activity
# experimental setup: ChemiScreen Calcium-optimized stable cell line; antagonist mode, inhibition of agonist-induced calcium flux
pIC50: −log10 of the molar value.
Parameter threshold = 7. Response is Y when pIC50 meets or exceeds it, else N.

CCc1nnn(-c2ccc(-c3ccc(C4(C(=O)O)CC4)cc3)cc2)c1NC(=O)O[C@H](C)c1cccc(C(F)(F)F)c1 [Example 19] :: N
Cc1nnn(-c2ccc(-c3ccc(C4(C(=O)O)CC4)cc3)cc2)c1NC(=O)O[C@@H]1CCc2ccccc21 [Example 8] :: N
Cc1nnn(-c2ccc(-c3ccc(C4(C(=O)NS(C)(=O)=O)CC4)cc3)cc2)c1NC(=O)O[C@H](C)c1ccccc1 [Example 30] :: Y
Cc1nnn(-c2ccc(-c3ccc(C4(C(=O)NS(C)(=O)=O)CC4)cc3)cc2)c1NC(=O)O[C@H](C)c1cccc(C(F)(F)F)c1 [Example 35] :: N
Cc1nnn(-c2ccc(-c3ccc(C4(C(=O)O)CCC4)cc3)cc2)c1NC(=O)O[C@H](C)c1ccccc1 (single isomer, unassigned) [Example 32] :: N

Consider the additional compound presented here.
Confirm if pIC50 reported for the compound Cc1c(NC(=O)O[C@H](C)c2ccccc2)nnn1-c1ccc(-c2ccc(C3(C(=O)O)CC3)cc2)cc1 [Example 3] is 7 or above. N

====

// values below are reported pIC50
# target system: LPA3 (Homo sapiens, UniProt Q9UBY5)
# Sequence (Q9UBY5 whole entry, species assumed): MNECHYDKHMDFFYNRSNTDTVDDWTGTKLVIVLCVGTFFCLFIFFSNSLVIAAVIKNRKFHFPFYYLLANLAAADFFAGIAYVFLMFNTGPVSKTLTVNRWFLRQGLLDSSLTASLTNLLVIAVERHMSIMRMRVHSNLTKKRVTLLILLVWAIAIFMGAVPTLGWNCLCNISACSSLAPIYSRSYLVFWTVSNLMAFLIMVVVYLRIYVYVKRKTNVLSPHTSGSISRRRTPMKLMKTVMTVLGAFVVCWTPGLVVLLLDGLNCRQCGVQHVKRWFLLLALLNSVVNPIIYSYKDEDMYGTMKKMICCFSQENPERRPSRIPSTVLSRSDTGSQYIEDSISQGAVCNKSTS
# test: Calcium flux assay using FLIPR, LPA3 antagonist activity
# experimental setup: antagonist activity
pIC50: −log10 of the molar value.

Endpoint output: pIC50 of `Cc1nnn(-c2ccc(-c3cccc(C4(C(=O)O)CC4)c3)cc2)c1NC(=O)O[C@H](C)c1ccccc1` . Value? < 4.52

Return reported pIC50; argument: `CC[C@@H](C)OC(=O)Nc1c(C)nnn1-c1ccc(-c2ccc(C3(C(=O)O)CC3)cc2)cc1` < 4.52

Query (compound): `Cc1nnn(-c2ccc(-c3ccc(C4(C(=O)O)CC4)cc3)cc2)c1NC(=O)O[C@H](C)c1ccccc1C(F)(F)F` ; field requested: pIC50 4.59

Need pIC50, item `COc1cc(-c2ccc(C3(C(=O)O)CC3)cc2)ccc1-n1nnc(C)c1NC(=O)O[C@H](C)c1ccccc1` < 4.52

// returns reported pIC50 for input `C[C@@H](OC(=O)Nc1nncn1-c1ccc(-c2ccc(C3(C(=O)O)CC3)cc2)cc1)c1ccccc1` < 4.52

Quick check: pIC50 of `Cc1nnn(-c2ccc(-c3ccc(C4(c5nnn[nH]5)CC4)cc3)cc2)c1NC(=O)O[C@H](C)c1ccccc1` ? < 4.52

If you can, please state the reported pIC50 value of Cc1nnn(-c2ccc(-c3ccc(C4(C(=O)O)CC4)cc3)cc2)c1NC(=O)OC(C)C1CCC1 (centres unmarked) . < 4.52

# get_value(readout='pIC50', item= `Cc1nnn(-c2ccc(-c3ccc(C(C)(C)C(=O)O)cc3)cc2)c1NC(=O)O[C@H](C)c1ccccc1` ) < 4.52

Quick check: pIC50 of `Cc1nnn(-c2ccc(-c3ccc(C4(C(=O)NS(C)(=O)=O)CC4)cc3)cc2)c1NC(=O)O[C@H](C)c1cccc(C(F)(F)F)c1` ? 5.24

Quick check: pIC50 of `C[C@@H](OC(=O)Nc1cnnn1-c1ccc(-c2ccc(C3(C(=O)O)CC3)cc2)cc1)c1ccccc1` ? < 4.52

Quick check: pIC50 of `Cc1nnn(-c2ccc(-c3ccc(C4(C(=O)O)CC4)cc3)cc2)c1NC(=O)OC(C)C` ? < 4.52

Quick one: pIC50 for `CCc1nnn(-c2ccc(-c3ccc(C4(C(=O)O)CC4)cc3)cc2)c1NC(=O)O[C@H](C)c1ccccc1` ? 4.66

Fill in: pIC50 of `Cc1nnn(-c2ccc(-c3ccc(CC(=O)O)cc3)cc2)c1NC(=O)O[C@H](C)c1ccccc1` is ___ < 4.52

Please give the measured pIC50 for this compound: `Cc1c(NC(=O)O[C@H](C)c2ccccc2)nnn1-c1ccc(-c2ccc(CC(=O)O)cc2)cc1` < 4.52

Param item = `Cc1nnn(-c2cccc(-c3ccc(CC(=O)O)cc3)c2)c1NC(=O)O[C@H](C)c1ccccc1` ; retrieve measured pIC50. < 4.52

State the recorded pIC50 for this entry: `Cc1nnn(-c2ccc(-c3ccc(C4(C(=O)O)CC4)cc3)cc2)c1NC(=O)O[C@H](C)c1ccccc1F` < 4.52

Which pIC50 value is on record for `Cc1nnn(-c2ccc(-c3ccc(C4(C(=O)O)CC4)cc3)cc2)c1NC(=O)OC(C)(C)C` ? < 4.52

So what does the record say about pIC50 for `Cc1nnn(-c2ccc(-c3ccc(C#N)cc3)cc2)c1NC(=O)O[C@H](C)c1ccccc1` ? < 4.52

Please report the recorded pIC50 for `Cc1nnn(-c2ccc(-c3ccc(C4(C(=O)NS(C)(=O)=O)CC4)cc3)cc2)c1NC(=O)O[C@H](C)c1ccccc1` . < 4.52

Query: pIC50; subject: `Cc1nnn(-c2cccc(-c3ccc(C4(C(=O)O)CC4)cc3)c2)c1NC(=O)O[C@H](C)c1ccccc1` < 4.52

Quick one: pIC50 for C=CCC(C(=O)O)c1ccc(-c2ccc(-n3nnc(C)c3NC(=O)O[C@H](C)c3ccccc3)cc2)cc1 (some centres unmarked) ? < 4.52

So what does the record say about pIC50 for `Cc1c(NC(=O)O[C@H](C)c2ccccc2)nnn1-c1ccc(-c2ccc(C3(C(=O)O)CC3)cc2)cc1` ? < 4.52

====

Each record here notes measured log10(IC50).
# target system: human recombinant LPA1 Lysophospholipid receptor (Homo sapiens)
# test: Calcium flux assay using FLIPR, LPA1 antagonist activity
# experimental setup: ChemiScreen Calcium-optimized stable cell line; antagonist mode, inhibition of agonist-induced calcium flux
# Description: Calcium Flux Assay Using Fluorometric Imaging Plate Reader (FLIPR) Cell Culture Conditions: The ChemiScreen Calcium-optimized stable cell line containing the human recombinant LPA1 Lysophospholipid receptor was purchased from Chemicon International, Inc./Millipore. […] Cells were harvested with trypsin-EDTA and counted using ViaCount reagent. […]
Would you kindly interpret these values as log10 of IC50 expressed in nM?

Which log10(IC50) reading was recorded for the compound COc1cc(-c2ccc(C3(C(=O)O)CC3)cc2)ccc1-n1nnc(C)c1NC(=O)O[C@H](C)c1ccccc1 [Example 16] ? 2.39

Quick one: log10(IC50) of Cc1nnn(-c2ccc(-c3ccc(C4(C(=O)O)CC4)cc3)cc2)c1NC(=O)OC(C)(C)C [Example 14] ? 2.99

Quick one: log10(IC50) for Cc1nnn(-c2ccc(-c3ccc(C4(C(=O)O)CC4)cc3)cc2)c1NC(=O)O[C@H](C)C(C)C [Example 9] ? 2.34

Reported log10(IC50), compound Cc1nnn(-c2ccc(-c3ccc(C(C)(C)C(=O)O)cc3)cc2)c1NC(=O)O[C@H](C)c1ccccc1 [Example 23] : ____ 2.90

For the compound Cc1nnn(-c2ccc(C3CCC(CC(=O)O)CC3)cc2)c1NC(=O)O[C@H](C)c1ccccc1 (stereo partly shown) [Example 34] , what log10(IC50) is on record? 3.98

Entry under review: CCc1nnn(-c2ccc(-c3ccc(C4(C(=O)O)CC4)cc3)cc2)c1NC(=O)O[C@H](C)c1ccccc1 [Example 17] . Reported log10(IC50)? 1.63

# query: log10(IC50) of entry Cc1nnn(-c2ccc(-c3ccc(C4(C(=O)O)CC4)cc3)cc2)c1NC(=O)O[C@H](C)c1ccccc1 [Example 1] 1.40

log10(IC50) lookup needed for C[C@@H](OC(=O)Nc1cnnn1-c1ccc(-c2ccc(C3(C(=O)O)CC3)cc2)cc1)c1ccccc1 [Example 21] , thanks. 1.56

Given C=CCC(C(=O)O)c1ccc(-c2ccc(-n3nnc(C)c3NC(=O)O[C@H](C)c3ccccc3)cc2)cc1 (stereo partly shown) [Example 33] , state its recorded log10(IC50). 1.94

Which log10(IC50) value belongs to Cc1nnn(-c2ccc(-c3ccc(C4(C(=O)O)CC4)c(F)c3)cc2)c1NC(=O)O[C@H](C)c1ccccc1 [Example 15] ? 1.34

Reported log10(IC50), compound CC[C@@H](C)OC(=O)Nc1c(C)nnn1-c1ccc(-c2ccc(C3(C(=O)O)CC3)cc2)cc1 [Example 10] : ____ 2.60

Can you share its log10(IC50)? I mean this compound: CCc1nnn(-c2ccc(-c3ccc(CC(=O)O)cc3)cc2)c1NC(=O)O[C@H](C)c1ccccc1 [Example 18] 3.09

====

# inhibition at 30 µM per entry
# target system: LPA3 (Homo sapiens, UniProt Q9UBY5)
# test: Calcium flux assay using FLIPR, LPA3 antagonist activity
# Type: cell-based
# experimental setup: @ 30 μM
Please give a number only; it is taken to be in %.

C[C@@H](OC(=O)Nc1cnnn1-c1ccc(-c2ccc(C3(C(=O)O)CC3)cc2)cc1)c1ccccc1 :: 22
CCc1nnn(-c2ccc(-c3ccc(CC(=O)O)cc3)cc2)c1NC(=O)O[C@H](C)c1cccc(C(F)(F)F)c1 :: 72.5
Cc1nnn(-c2ccc(-c3ccc(C4(C(=O)O)CC4)c(F)c3)cc2)c1NC(=O)O[C@H](C)c1ccccc1 :: 46.3
Cc1nnn(-c2ccc(-c3ccc(C4(C(=O)O)CC4)cc3)cc2)c1NC(=O)O[C@H](C)c1ccccc1C(F)(F)F :: 55.2

Then there is this compound:
Suppose we examine the compound `CCc1nnn(-c2ccc(-c3ccc(C4(C(=O)O)CC4)cc3)cc2)c1NC(=O)O[C@H](C)c1ccccc1` ; what inhibition at 30 µM value has been reported? 63.7
